# Tested on: HL-60(TB) leukemia
# testProtocol: NCI-60 one-dose screen, 48 h (100 = growth as untreated, 0 = no growth, -100 = all killed)
# runParameters: 10 µM unless noted
The panel holds about 83,000 compounds, 20% with a hit somewhere; the sample as a whole holds those more often.
endpoint: growth (%)

[
  {
    "compound": "COC(=O)c1cc2c3c(cc(O)c2[nH]1)N(C(=O)C1Cc2cc(OC)c(OC)c(OC)c2N1)CC3CCl (centres undefined)",
    "endpoint": "growth",
    "recordedNumber": -5.77
  },
  {
    "compound": "Cc1cc(C)c(NC(=O)c2sc3nc4c(cc3c2N)CN(Cc2ccccc2)CC4)c(C)c1",
    "endpoint": "growth",
    "recordedNumber": -10.3
  },
  {
    "compound": "CC(=O)C(C(C)=O)C(c1ccccc1)C(C(C)=O)C(C)=O",
    "endpoint": "growth",
    "recordedNumber": 98.5
  },
  {
    "compound": "COc1ccc(-c2[nH]c3ccc(OC)cc3c2/C=C(\\C#N)S(=O)(=O)c2ccccc2)cc1",
    "endpoint": "growth",
    "recordedNumber": 8.54
  },
  {
    "compound": "O=C(/C=C/c1sc(Cl)nc1Cl)c1ccc(Br)cc1",
    "endpoint": "growth",
    "recordedNumber": 71.4
  },
  {
    "compound": "COc1cc(-c2nc(SCCC(C)C)nc(N3CCOCC3)c2C#N)cc(OC)c1OC",
    "endpoint": "growth",
    "recordedNumber": 95.2
  },
  {
    "compound": "C#C[C@]1(O)CC[C@H]2[C@@H]3CC=C4c5sc(-c6ccccc6)nc5CC[C@]4(C)[C@H]3CC[C@@]21C",
    "endpoint": "growth",
    "recordedNumber": 74.2
  },
  {
    "compound": "CCc1ccc(CNCC(O)c2ccccc2)cc1 (centres undefined)",
    "endpoint": "growth",
    "recordedNumber": 95.7
  },
  {
    "compound": "COC(=O)[C@@H](NC(=O)NC(=O)NC(=O)CI)C(C)C",
    "endpoint": "growth",
    "recordedNumber": 77.9
  },
  {
    "compound": "CCC(O)CC(CC)CO (centres undefined)",
    "endpoint": "growth",
    "recordedNumber": 94.2
  },
  {
    "compound": "O=C(/C=C/c1ccc(F)cc1)N1CCN(C(=O)/C=C/c2ccc(C(F)(F)F)cc2)CC1",
    "endpoint": "growth",
    "recordedNumber": 97
  },
  {
    "compound": "O=c1c2c3c(sc2nc(N/N=C/c2ccc(Br)cc2)n1Cc1ccccc1)CCCC3",
    "endpoint": "growth",
    "recordedNumber": 71.2
  },
  {
    "compound": "Cc1cc(O)cc(-c2c(-c3ccnc(-c4cccnc4)c3)cnn2C)c1",
    "endpoint": "growth",
    "recordedNumber": 46
  },
  {
    "compound": "CC(=O)OC1Oc2ccccc2-c2oc3nc(=N)n(C)c-3cc21 (centres undefined)",
    "endpoint": "growth",
    "recordedNumber": 94.4
  },
  {
    "compound": "c1cc(NCCc2ccncc2)nc(-n2cnc3ccccc32)c1",
    "endpoint": "growth",
    "recordedNumber": 67.7
  },
  {
    "compound": "COc1cc2c(cc1OC)-c1ccc3cc4c(cc3c1N(CCN1CCCC1)C2)OCO4",
    "endpoint": "growth",
    "recordedNumber": -39.7
  },
  {
    "compound": "CCN1C(=O)N(c2ccccc2)C2NC(=S)N(/N=C/C=C/c3ccccc3)C21 (centres undefined)",
    "endpoint": "growth",
    "recordedNumber": -26.4
  },
  {
    "compound": "COc1cc2c(c(Br)c1N)-c1cc(Br)c(N)cc1C2=O",
    "endpoint": "growth",
    "recordedNumber": 88.9
  },
  {
    "compound": "COc1cc(/C=N\\Nc2ccccc2)ccc1OC(=O)c1ccccc1",
    "endpoint": "growth",
    "recordedNumber": -10.8
  },
  {
    "compound": "C=C1C(=O)O[C@H]2[C@H]1CC/C(COC(=O)NCc1ccc(Cn3c(=O)sn(CCCC)c3=O)cc1)=C\\CC[C@@]1(C)O[C@@H]21",
    "endpoint": "growth",
    "recordedNumber": -33.2
  },
  {
    "compound": "O=C1C=CC(=O)N1C1c2ccccc2-c2ccccc21",
    "endpoint": "growth",
    "recordedNumber": 77.7
  },
  {
    "compound": "CCCCCCCCCCCCCCn1c2ccccc2c2c3c(c4c5cc(OC)ccc5oc4c21)C(=O)NC3=O",
    "endpoint": "growth",
    "recordedNumber": 115
  },
  {
    "compound": "CO/C(=C1/NC(=O)C(Cc2ccc(O)c(Br)c2)N(C)C(=O)C(C)NC(=O)CCC/C=C(\\C)CCC(C)OC1=O)c1ccccc1 (centres undefined)",
    "endpoint": "growth",
    "recordedNumber": -58.6
  },
  {
    "compound": "Cc1cc(Cc2cc(C)c(O)c(C)c2)cc(C)c1O",
    "endpoint": "growth",
    "recordedNumber": 15.6
  },
  {
    "compound": "OC[C@H]1OC([S-])[C@H](O)[C@@H](O)[C@@H]1O.[Au+] (some centres undefined)",
    "endpoint": "growth",
    "recordedNumber": 95.1
  },
  {
    "compound": "COc1cc(C(=O)/C=C/c2ccc(N3CCN(C)CC3)cc2)cc(OC)c1OC",
    "endpoint": "growth",
    "recordedNumber": 98.2
  },
  {
    "compound": "CCCNC(=O)c1cn2ncnc(Nc3cc(C(=O)NC4CC4)ccc3C)c2c1C",
    "endpoint": "growth",
    "recordedNumber": 129
  },
  {
    "compound": "COC(=O)c1nc(-c2ccc(C)cc2)oc1Sc1ccc(C)cc1",
    "endpoint": "growth",
    "recordedNumber": 91.4
  },
  {
    "compound": "CCCCCCCCC(C)C(=O)N1CCCC1C(=O)N1C(CC(=O)CC)CC(C)CC1C(=O)NC(C)C(=O)NC(C)(C)C(=O)NC(C)(C)C(=O)NC(C(=O)NC(C)C(=O)NC(C)(C)C(=O)NC(C)(C)C(=O)NC(C)CN(C)CCO)C(C)CC (centres undefined)",
    "endpoint": "growth",
    "recordedNumber": -51.8
  },
  {
    "compound": "CCCC(=O)NC(c1ccc2c(c1)OCO2)c1cc(Cl)c2cccnc2c1O (centres undefined)",
    "endpoint": "growth",
    "recordedNumber": -19.5
  },
  {
    "compound": "O=C(O)/C(Br)=C/c1c[nH]c2ccc(Br)cc12",
    "endpoint": "growth",
    "recordedNumber": 96.9
  },
  {
    "compound": "O=c1oc2ccc(Br)cc2c(=O)n1-c1ccc(Cl)cc1F",
    "endpoint": "growth",
    "recordedNumber": -32.8
  },
  {
    "compound": "c1cc(OCCCCCOc2cccc(-c3nc4ccccc4[nH]3)c2)cc(-c2nc3ccccc3[nH]2)c1",
    "endpoint": "growth",
    "recordedNumber": -32.2
  },
  {
    "compound": "C=CCN=c1sc(-c2ccc3ccccc3c2)cn1NC(=O)c1cc2ccc1CCc1ccc(cc1)CC2",
    "endpoint": "growth",
    "recordedNumber": 49.2
  },
  {
    "compound": "O=C(CCCC(=O)Nc1ccc(-n2nnc3cc(Cl)c(Cl)cc32)cc1)Nc1ccc(-n2nnc3cc(Cl)c(Cl)cc32)cc1",
    "endpoint": "growth",
    "recordedNumber": 75.9
  },
  {
    "compound": "CCCn1c2cc(OCc3cn(-c4ccc(Cl)cc4)nn3)ccc2c2ccnc(C)c21",
    "endpoint": "growth",
    "recordedNumber": -51.4
  },
  {
    "compound": "CN(C)c1ccc(/C=N/Nc2nnc3n2N=C(c2ccc(Cl)cc2)CS3)cc1",
    "endpoint": "growth",
    "recordedNumber": 91.4
  },
  {
    "compound": "CON1C(=O)CC[C@]2(C)[C@H]3CC[C@@H]4C([C@@]5(C)CCC(=O)O5)CC[C@@]4(C)[C@]3(C)CC[C@H]2C1(C)C (some centres undefined)",
    "endpoint": "growth",
    "recordedNumber": 100
  },
  {
    "compound": "Cc1ccc(C2(C)NC(=O)N(CC(=O)Nc3cccc(C)c3)C2=O)cc1 (centres undefined)",
    "endpoint": "growth",
    "recordedNumber": 103
  }
]
